Form field: Total impurity (%) (one value per entry).
assay: Illumination test (stability study)
Type: physicochemical
measurement-setup: 13 days
Express it in %; write the number only.

Reference set (3 entries):
[
  {
    "smiles-string": "COC(=O)C1=C(CN2CCOC[C@H]2C(=O)O)N=C(c2nccs2)N[C@H]1c1ccc(F)cc1Cl.Cl",
    "Total impurity (%)": 2.53
  },
  {
    "smiles-string": "COC(=O)C1=C(CN2CCOC[C@H]2C(=O)O)N=C(c2nccs2)N[C@H]1c1ccc(F)cc1Cl.O=C(O)C(O)C(O)C(=O)O",
    "Total impurity (%)": 0.16
  },
  {
    "smiles-string": "COC(=O)C1=C(CN2CCOC[C@H]2C(=O)O)NC(c2nccs2)=N[C@H]1c1ccc(F)cc1Cl",
    "Total impurity (%)": 9.44
  }
]

Lab note: next molecule to report on.
Lab note: Br.COC(=O)C1=C(CN2CCOC[C@H]2C(=O)O)N=C(c2nccs2)N[C@H]1c1ccc(F)cc1Cl gave Total impurity (%) of 3.94

###

assay: Illumination test (stability study)
Format: physicochemical
measurement-setup: 13 days
assay-endpoint: Appearance

[
  {
    "smiles-string": "Br.COC(=O)C1=C(CN2CCOC[C@H]2C(=O)O)N=C(c2nccs2)N[C@H]1c1ccc(F)cc1Cl",
    "result": "yellow"
  },
  {
    "smiles-string": "COC(=O)C1=C(CN2CCOC[C@H]2C(=O)O)N=C(c2nccs2)N[C@H]1c1ccc(F)cc1Cl.O=C(O)C(O)C(O)C(=O)O",
    "result": "yellow"
  },
  {
    "smiles-string": "COC(=O)C1=C(CN2CCOC[C@H]2C(=O)O)N=C(c2nccs2)N[C@H]1c1ccc(F)cc1Cl.Cl",
    "result": "yellow"
  }
]
